- System: MES seizure
- Assay info: maximal electroshock (MES) seizure test
- Type: in vivo, mice
- Measurement setup: ratio TD50 (rotorod)/ED50 (MES), mice
Values of TI (therapeutic index) strictly less than 2 map to Met, and values of at least 2 map to Not met.

Here's an entry: CCCC(CCC)C(=O)O [valproate] . Is its TI (therapeutic index) below 2?
Not met

Here's an entry: CCCCCCCC(C)=O [2-Nonanone] . Is its TI (therapeutic index) below 2?
Not met

Here's an entry: CCCC(C)O (stereo not shown) [2-Pentanol] . Is its TI (therapeutic index) below 2?
Not met

Here's an entry: CCCCC(=O)CCCC [5-Nonanone] . Is its TI (therapeutic index) below 2?
Not met

Here's an entry: CCCCCCC(C)=O [2-Octanone] . Is its TI (therapeutic index) below 2?
Met

Here's an entry: CCCCC(C)=O [2-Hexanone] . Is its TI (therapeutic index) below 2?
Met

Here's an entry: CCCCCC(C)=O [2-Heptanone] . Is its TI (therapeutic index) below 2?
Not met

Here's an entry: CCCCCC(=O)CCC [4-Nonanone] . Is its TI (therapeutic index) below 2?
Not met

Here's an entry: CCCCCCC(=O)CC [3-Nonanone] . Is its TI (therapeutic index) below 2?
Not met

Here's an entry: CCCCCCC(C)O (stereo not shown) [2-Octanol] . Is its TI (therapeutic index) below 2?
Met

Here's an entry: CCCC(=O)CCC [4-Heptanone] . Is its TI (therapeutic index) below 2?
Not met

Here's an entry: CCCCCCCC(C)O (stereo not shown) [2-Nonanol] . Is its TI (therapeutic index) below 2?
Not met

Here's an entry: CCC(=O)CC [3-Pentanone] . Is its TI (therapeutic index) below 2?
Not met

Here's an entry: CCCC(C)=O [2-Pentanone] . Is its TI (therapeutic index) below 2?
Not met

Here's an entry: CCCCCC(C)O (stereo not shown) [2-Heptanol] . Is its TI (therapeutic index) below 2?
Not met
